- Procedure details: growth inhibitors of tim10-1 mutant yeast, primary screen, luminescence, uHTS (AID 463190);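 further: mutant grown at 25 °C; 0% = DMSO wells with yeast and 100% = wells holding no yeast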
- Experimental context: S. cerevisiae tim10-1 ts strain growth, BacTiter-Glo, 24 h; at 20 µM; active compounds read high
The whole screen tested about 330,000 compounds, of which about 7,300 (2.2%) were called active. Shown is part of a subset that was picked to be rich in actives.
Observable: inhibition (%)
# number only, unit % dropped from output

Examples with answers:
INSERT INTO assay_data (compound, observable, measurement_unit, reported_result) VALUES
  ('O=C(NC(=S)Nc1ccccc1N1CCCCC1)c1ccc(F)cc1', 'inhibition', '%', 32.4),
  ('O=C(COc1cccc(F)c1)Oc1ccc(C(=O)c2ccccc2)cc1', 'inhibition', '%', -0.003),
  ('Cc1ccc(NC(=O)COC(=O)CCc2nc3ccccc3n2-c2ccccc2)c(C)c1', 'inhibition', '%', 10.3);

Exam item: Note down inhibition recorded for COc1ccc(CCNC(=O)C(=O)Nc2ccc3nc4n(c(=O)c3c2)CCCCC4)cc1OC
Marked response: 9.06

Exam item: For Nc1ccc(-c2nnc(-c3ccc(-c4ccccc4)cc3)o2)cc1 , write its inhibition.
Marked response: 45.9

Exam item: Tell me inhibition reported for Cc1ccc(C(=O)NC(=S)Nc2ccccc2C)cc1
Marked response: 40.5

Exam item: Assign inhibition to the following record: CCC(=O)Nc1ccc(S(=O)(=O)Nc2c(NC)c3ccccc3oc2=O)cc1
Marked response: 27

Exam item: Give inhibition for the following compound: COc1ccc(C(=O)NC(=S)Nc2ccccc2N2CCN(S(C)(=O)=O)CC2)cc1OC
Marked response: 25

###

- Procedure details: growth inhibitors of tim10-1 mutant yeast, primary screen, luminescence, uHTS (AID 463190);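 further: mutant grown at 25 °C; 0% = DMSO wells with yeast and 100% = wells holding no yeast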
- Experimental context: S. cerevisiae tim10-1 ts strain growth, BacTiter-Glo, 24 h; at 20 µM; active compounds read high
About 7,300 (2.2%) of roughly 330,000 compounds were called active. This is one part of a sample in which actives are shown more often than they occur.
Quick reference for inhibition among some compounds

Exam item: Provide only the value of recorded inhibition for O=C(Nc1ccc2oc(-c3ccc4ccccc4c3)nc2c1)c1cccs1
Marked response: 3.31% (inactive)

###

- Procedure details: growth inhibitors of tim10-1 mutant yeast, primary screen, luminescence, uHTS (AID 463190);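 further: mutant grown at 25 °C; 0% = DMSO wells with yeast and 100% = wells holding no yeast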
- Experimental context: S. cerevisiae tim10-1 ts strain growth, BacTiter-Glo, 24 h; at 20 µM; active compounds read high
About 7,300 (2.2%) of roughly 330,000 compounds were called active. Many of the other results were omitted from the sample, so actives are more common in it than they were.
Decision: inhibition >= 10% yields yes (1), all other cases yield no (0).

Please review the entries below; each comes with its answer.
INSERT INTO assay_data (compound, qualitative_label) VALUES
  ('CC(=O)c1cc(C#N)c(SCC(=O)Nc2nccs2)nc1C', 'no (0)'),
  ('CC(=O)Nc1nc(C)c(Cc2ccccc2)c(=O)[nH]1', 'yes (1)'),
  ('O=[N+]([O-])c1c(NCCO)cc(Sc2nc3ccccc3s2)c2nonc12', 'yes (1)'),
  ('COc1ccc(C(C(=O)NC2CCCCC2)N(C(=O)Cc2c[nH]c3ccccc23)c2ccccc2)cc1OC (stereo unspecified)', 'yes (1)'),
  ('Cc1ccc2c(c1)c1ncn(CCC3=CCCCC3)c(=O)c1n2C', 'yes (1)'),
  ('O=C(O)c1ccccc1CSc1nc2ccccc2s1', 'no (0)'),
  ('S=C(NCc1cccnc1)Nc1ccc(Cl)cc1Cl', 'yes (1)'),
  ('CCOC(=O)c1nnn(-c2nonc2OC)c1-c1ccccc1', 'yes (1)');

Exam item: Record CC(=O)Cc1nsc(NC(=O)c2ccc(Cl)cc2Cl)n1 ; criterion: inhibition no lower than 10%. Met?
Marked response: yes (1)

Exam item: Decide: inhibition of Cc1ccc2c(c1)c1ncnc(N3CCc4ccccc4C3)c1n2C >= 10%?
Marked response: yes (1)

Exam item: Record COc1ccc(CCNC(=O)COC(=O)c2ccc[nH]c2=O)cc1 ; criterion: inhibition no lower than 10%. Met?
Marked response: no (0)
